Items are presented alongside their recorded pIC50.
Assay Target: purified recombinant human GAC (GLS1) (Homo sapiens (Human))
Sequence (O94925 other isoform, or with tags, fused parts or gaps): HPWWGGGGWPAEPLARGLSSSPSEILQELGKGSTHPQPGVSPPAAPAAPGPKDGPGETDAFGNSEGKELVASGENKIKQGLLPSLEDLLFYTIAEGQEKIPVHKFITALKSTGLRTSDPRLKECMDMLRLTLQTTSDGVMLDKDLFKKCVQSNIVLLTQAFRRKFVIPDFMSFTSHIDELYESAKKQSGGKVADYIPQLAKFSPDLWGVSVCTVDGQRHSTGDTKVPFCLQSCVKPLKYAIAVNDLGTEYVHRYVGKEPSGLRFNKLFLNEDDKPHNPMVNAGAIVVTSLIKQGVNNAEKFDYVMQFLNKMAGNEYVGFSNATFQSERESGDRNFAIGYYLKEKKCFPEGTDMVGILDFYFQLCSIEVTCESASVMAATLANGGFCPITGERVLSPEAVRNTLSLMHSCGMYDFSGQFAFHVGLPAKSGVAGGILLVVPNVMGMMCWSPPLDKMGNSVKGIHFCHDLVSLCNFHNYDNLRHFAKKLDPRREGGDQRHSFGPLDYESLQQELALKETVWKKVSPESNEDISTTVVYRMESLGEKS
Assay Procedure: GLS1 Enzymatic Activity Assay (dual-coupled enzymatic assay, resorufin/Amplex UltraRed readout);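 also: glutamate from GAC coupled via glutamate oxidase and peroxidase to resorufin, read as fluorescence (ex 530, em 590 nm) kinetically or at 20 min, four-parameter logistic IC50 fit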
pIC50: −log10 of the molar value.

Example results:
{"Molecule": "O=C(Cc1cccnc1)Nc1cn(CCCCn2cc(C(=O)NCc3ccccn3)nn2)nn1", "pIC50": "5.30 to 6.30"}
{"Molecule": "O=C(NCc1cc(C(F)(F)F)ccn1)c1cn(CCCCc2ccc(NC(=O)C3CC3)nn2)nn1", "pIC50": "> 7.00"}
{"Molecule": "Cc1ccc(CNC(=O)c2cn(CC(F)CCn3cc(C(=O)NCc4cccc(OC(F)(F)F)c4)nn3)nn2)cn1 (stereo not drawn)", "pIC50": "> 7.00"}
{"Molecule": "Cc1ccc(CC(=O)Nc2cn(CCCCn3cc(C(=O)NCc4ccccn4)nn3)nn2)cn1", "pIC50": "6.30 to 7.00"}
{"Molecule": "CNC(=O)c1cn(CC(F)CCn2cc(C(=O)NCc3cc(OC(F)(F)F)ccc3F)nn2)nn1 (stereo not drawn)", "pIC50": "6.30 to 7.00"}
{"Molecule": "O=C(Cc1cc(OC(F)(F)F)ccc1F)Nc1ccc(CCCCn2cc(C(=O)NCc3cccnc3)nn2)nn1", "pIC50": "> 7.00"}
{"Molecule": "O=C(Cc1cc(OC(F)(F)F)ccc1F)Nc1ccc(CCCCn2cc(C(=O)NC3COC3)nn2)nn1", "pIC50": "> 7.00"}
{"Molecule": "CNC(=O)c1cn(CC(F)CCn2cc(NC(=O)Cc3cc(OC(F)(F)F)ccc3F)nn2)nn1 (stereo not drawn)", "pIC50": "> 7.00"}
{"Molecule": "Cc1ccc(CNC(=O)c2cn(CC(F)CCn3cc(NC(=O)Cc4cccc(OC(F)(F)F)c4)nn3)nn2)cn1 (stereo not drawn)", "pIC50": "> 7.00"}
{"Molecule": "O=C(NCc1ccc(C(F)(F)F)nc1)c1cn(CCCCn2cc(C(=O)NCc3cccc(OC(F)(F)F)c3)nn2)nn1", "pIC50": "> 7.00"}

Form field, pIC50 with purified recombinant human GAC (GLS1) (Homo sapiens (Human)), item O=C(Cc1cc(OC(F)(F)F)ccc1F)Nc1cn(CC(F)CCn2cc(C(=O)NCc3cccc(OC(F)(F)F)c3)nn2)nn1 (stereo not drawn) : > 7.00

Form field, pIC50 with purified recombinant human GAC (GLS1) (Homo sapiens (Human)), item CCNC(=O)c1nnc(CCC(F)Cn2cc(C(=O)NCc3cccc(OC(F)(F)F)c3)nn2)s1 (stereo not drawn) : > 7.00

Form field, pIC50 with purified recombinant human GAC (GLS1) (Homo sapiens (Human)), item CNC(=O)c1cn(CCC(F)Cn2cc(C(=O)NCc3ccc(OC(F)F)cc3)nn2)nn1 (stereo not drawn) : 6.30 to 7.00

Form field, pIC50 with purified recombinant human GAC (GLS1) (Homo sapiens (Human)), item O=C(NCc1cc(C(F)(F)F)ccn1)c1cn(CCCCn2cc(C(=O)NCC3COC3)nn2)nn1 : 5.30 to 6.30

Form field, pIC50 with purified recombinant human GAC (GLS1) (Homo sapiens (Human)), item O=C(NCc1cccc(OC(F)(F)F)c1)c1cn(CCCCn2cc(C(=O)NC[C@@H](O)c3ccccc3)nn2)nn1 : 6.30 to 7.00

The reported measurements were obtained from patent US10344025B2.
